For each record, write down the corresponding pIC50.
Target: hα2C receptor (Homo sapiens)
Construct: expressed in transfected cells
Sequence (P18825 whole entry): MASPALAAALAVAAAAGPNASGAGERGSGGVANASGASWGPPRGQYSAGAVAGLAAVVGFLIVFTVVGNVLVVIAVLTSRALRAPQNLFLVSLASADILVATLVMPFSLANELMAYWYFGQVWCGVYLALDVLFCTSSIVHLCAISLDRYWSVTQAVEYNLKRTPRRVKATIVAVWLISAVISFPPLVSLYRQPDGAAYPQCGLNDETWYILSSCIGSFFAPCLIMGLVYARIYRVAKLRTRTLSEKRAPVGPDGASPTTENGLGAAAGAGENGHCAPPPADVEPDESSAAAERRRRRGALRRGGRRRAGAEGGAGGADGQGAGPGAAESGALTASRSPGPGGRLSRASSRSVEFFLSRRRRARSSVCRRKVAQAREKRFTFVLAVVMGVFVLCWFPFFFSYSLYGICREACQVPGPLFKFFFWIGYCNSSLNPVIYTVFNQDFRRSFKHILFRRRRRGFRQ
Assay: Radioligand binding experiment for α2C-adrenergic receptor ([3H]-raulwolscine)
Protocol: In general, a low concentration of a radioligand with a high binding affinity for a particular receptor or transporter is incubated with a sample of a tissue preparation enriched in a particular receptor or transporter or with a preparation of cells expressing cloned human receptors in a buffered medium. […] When equilibrium of binding is reached, the receptor bound radioactivity is separated from the non-bound radioactivity, and the receptor- or transporter-bound activity is counted. […]
Give bare numbers, as −log10 of the molar value.

Provide pIC50 values for the following items, in order.
1. C/C(=C\c1ccccc1)CN1CCN(CC2ON=C3c4cc5ccn(C)c5cc4OCC32)CC1 (stereo not shown)
2. COC(=O)Cn1ccc2cc3c(cc21)OCC1C3=NOC1CN1CCN(C/C(C)=C/c2ccccc2)CC1 (stereo not shown)
3. CC(=O)n1ccc2cc3c(cc21)OCC1C3=NOC1CN1CCN(C/C(C)=C/c2ccccc2)CC1 (stereo not shown)

Result:
1: 9.10; 2: 9.10; 3: 9.00

Task: Query the reported pIC50 for hα2C receptor (Homo sapiens); item: C/C(=C\c1ccccc1)CN1CCN(C[C@@H]2ON=C3c4cc5cc[nH]c5cc4OC[C@H]32)CC1 (relative stereo)
Result: 9.00
